The measurements presented in this section are drawn from patent US20200247894A1.

Each entry below carries its recorded Raw MFI.
- assay-system: T1, human IL-2Rγ endogenously expressed on NK-92 and Jurkat cells (human, UniProt P31785 23-369)
- T1 construct: whole, on cells; on cells it stands with the other receptor subunits of the cell line; also called IL-2Rg; CD132
- T1 sequence (looked up): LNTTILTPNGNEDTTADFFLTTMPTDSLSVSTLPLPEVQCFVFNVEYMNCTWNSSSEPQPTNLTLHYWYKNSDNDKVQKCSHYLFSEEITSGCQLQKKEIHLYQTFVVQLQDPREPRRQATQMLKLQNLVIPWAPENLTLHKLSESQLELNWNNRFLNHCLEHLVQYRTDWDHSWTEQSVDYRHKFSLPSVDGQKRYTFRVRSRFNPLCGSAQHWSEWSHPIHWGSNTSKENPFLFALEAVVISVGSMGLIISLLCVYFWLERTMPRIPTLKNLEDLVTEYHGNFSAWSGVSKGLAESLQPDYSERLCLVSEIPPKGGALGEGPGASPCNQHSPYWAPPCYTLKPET
- measurement-description: flow cytometry, 10 ug/ml antibody, Jurkat cells (endogenous human IL-2Rg)
# unit: MFI | format: bare number

[[record]]
binder = "H4H12884P (antibody, human IgG4 S228P, kappa, V domains shown, fully human anti-IL2Rg antibody, human IgG4) VH: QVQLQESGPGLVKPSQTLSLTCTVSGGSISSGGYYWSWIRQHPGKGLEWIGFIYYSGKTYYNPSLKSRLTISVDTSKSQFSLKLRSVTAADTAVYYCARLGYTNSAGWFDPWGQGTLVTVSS VL: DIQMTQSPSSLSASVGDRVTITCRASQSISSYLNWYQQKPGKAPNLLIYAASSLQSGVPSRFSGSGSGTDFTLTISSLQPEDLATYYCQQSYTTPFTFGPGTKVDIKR"
reported_property = "Raw MFI"
result_value = 1420


Short answer for H4H12889P (antibody, human IgG4 S228P, kappa, V domains shown, fully human anti-IL2Rg antibody, human IgG4; also called REGN7257) VH: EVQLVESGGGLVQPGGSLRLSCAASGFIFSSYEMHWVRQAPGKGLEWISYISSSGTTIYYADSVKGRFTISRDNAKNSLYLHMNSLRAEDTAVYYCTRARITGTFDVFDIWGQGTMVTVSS VL: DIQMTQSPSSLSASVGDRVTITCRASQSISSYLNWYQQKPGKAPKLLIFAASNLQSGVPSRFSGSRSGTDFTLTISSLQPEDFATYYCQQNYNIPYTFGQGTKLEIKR : Raw MFI was 1660

Short answer for H4H12858P (antibody, human IgG4 S228P, kappa, V domains shown, fully human anti-IL2Rg antibody, human IgG4; also called REGN9433) VH: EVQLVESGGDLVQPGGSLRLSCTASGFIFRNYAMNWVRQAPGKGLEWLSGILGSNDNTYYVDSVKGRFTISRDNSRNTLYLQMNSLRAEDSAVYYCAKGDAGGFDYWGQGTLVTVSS VL: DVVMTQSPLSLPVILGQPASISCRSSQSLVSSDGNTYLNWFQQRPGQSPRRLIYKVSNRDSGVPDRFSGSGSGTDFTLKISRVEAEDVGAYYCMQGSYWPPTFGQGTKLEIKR : Raw MFI was 99
